- Tested on: SF-295
- run_description: NCI tumour cell line growth inhibition, 48 h
Activity calls are given as the source filed them. Cut-off read from the data, not from the text of the source: active = GI50 up to about 1.1 µM and inactive = higher.
Hello, when you answer, please use one of the following outcomes: label 1 (active), label 0 (inactive)

Some solved entries appear below for comparison.
item_smiles=O=C(O)C(=O)Cc1ccc2c(c1)OCO2 assigned_label="label 0"
item_smiles=O=S1(=O)CCN(Cc2ccccn2)CC1 assigned_label="label 0"
item_smiles=O=C(O)CCCc1cc2c(s1)-c1cccc3cccc-2c13 assigned_label="label 0"

Continue with the compound presented below.
Query :: Which outcome was assigned to CC1=CC[C@@H]2[C@@H](CC[C@@]2(C)O)C(C)(C)[C@H]1CC[C@@H]1[C@@]2(C)CCC(=O)C(C)(C)O[C@@H]2CC[C@]1(C)O in this test?
Result :: label 1

----------
- Tested on: NCI-H226
- run_description: NCI tumour cell line growth inhibition, 48 h
Activity calls are given as the source filed them. No stated cut-off is given here; in the data, active = GI50 up to about 1.1 µM and inactive = higher.
measured_parameter: GI50

Query :: Tell me the measured GI50 of N=C(N)N/N=C/c1c(-c2ccccc2)nc2ccn3c(/C=N/N=C(N)N)c(-c4ccccc4)nc3n12 , please.
Result :: > 100 µM (inactive)

Query :: What does the record list as GI50 for O=C1OC(CS(=O)(=O)c2ccccc2)CC1O (stereo not drawn) ?
Result :: > 100 µM (inactive)

Query :: What GI50 value was documented for this compound, CC1=CC[C@@H]2[C@@H](CC[C@@]2(C)O)C(C)(C)[C@H]1CC[C@@H]1[C@@]2(C)CCC(=O)C(C)(C)O[C@@H]2CC[C@]1(C)O ?
Result :: 22.5 µM (inactive)

----------
- System: M14
- run_description: NCI tumour cell line growth inhibition, 48 h
The source made the active and inactive calls. No stated cut-off is given here; in the data, active = GI50 up to about 1.1 µM and inactive = higher.
Form entry, call: pick from Y for active, N for inactive

Worked examples follow.
molecule="C#CC(O)/C=C/C(O)CCCC(O)CC#CC(O)C#CC(O)CCCC(O)/C=C/CCCC(=O)CCCCCCCCCCCCCCCC(O)C(O)C#CC(=O)O (configuration not stated)" assigned_label=N
molecule=Cc1cc(N2CCN(C)CC2)n2nc(-c3ccc(Cl)cc3)nc2n1 assigned_label=N
molecule="CCOC(=O)C1CCC(=O)N1C(=O)c1cccc(Cl)c1 (configuration not stated)" assigned_label=N
molecule="CC1CC/C(=C\\c2ccc(Cl)cc2)c2nc(N)c(C#N)c(-c3ccc(Cl)cc3)c21 (configuration not stated)" assigned_label=N
molecule=Cc1ccc2c(c1)C(=O)/C(=N/Nc1ccc(Cl)cc1)CCO2 assigned_label=N

Query :: Called result for CC1(C)OC(=S)N(c2ccccc2)C12C=Cc1ccccc1O2 (configuration not stated)
Result :: N

Query :: I would be grateful if you could indicate the recorded call for S=C(N/N=C(/c1ccccc1)c1ccccn1)N1CCCCC1 .
Result :: Y

----------
Measured GI50, listed per entry for reference.
- System: OVCAR-3
- run_description: NCI tumour cell line growth inhibition, 48 h
Active and inactive are the calls of the source. Rule as the data show it: active = GI50 up to about 1.1 µM and inactive = higher.

Worked cases, answers included:
compound=CCC1=C(C)C(=O)N/C1=C\c1[nH]c(C)c([C@H](C)CCN)c1C measured_result="16 µM (inactive)"
compound=Cc1nc(C(N)=S)sc1C(=O)CC(=O)C(=O)Nc1cccc(Cl)c1C measured_result="> 100 µM (inactive)"
compound=CC(C)OP(=O)(OC(C)C)/C(=N/Nc1ccc([N+](=O)[O-])cc1)NCCO measured_result="> 100 µM (inactive)"
compound="COC(=O)C12OC(C)(C(CC(=O)OC(C)(C)C)C1=O)C1C(=O)N(c3ccccc3)C(=O)C12 (configuration not stated)" measured_result="> 100 µM (inactive)"
compound=CNc1nc(SC)nc2c1c(N)nn2C measured_result="> 100 µM (inactive)"
compound=CC(C)N(C(=O)C12CC3CC(CC(C3)C1)C2)C(C)C measured_result="> 50 µM (inactive)"
compound=CC(=O)OCCOc1cc2c([nH]c3ccccc32)c(C)c2cccc1-2 measured_result="2.01 µM (inactive)"
compound="COC12C=CC(CC1)c1c(O)ccc(O)c12 (configuration not stated)" measured_result="21.8 µM (inactive)"
compound=Cc1ccc2c(c1)C(=O)/C(=N/Nc1ccc(Cl)cc1)CCO2 measured_result="> 100 µM (inactive)"
compound="CCOC(=O)C(Cc1ccc(O)cc1)Nc1nc(=O)c2c(=O)oc(Cl)cc2o1 (configuration not stated)" measured_result="6.78 µM (inactive)"

Query :: Which value of GI50 has been reported for COc1cc2c(c(O)c1C)C(=O)CC(c1ccccc1)O2 (configuration not stated) in the records?
Result :: 48.1 µM (inactive)

Query :: What value of measured GI50 is listed for Cc1sc(Cc2ccccc2)nc1-c1ccc(N)cc1 ?
Result :: 20.7 µM (inactive)

----------
- System: UACC-257
- run_description: NCI tumour cell line growth inhibition, 48 h
Activity calls are given as the source filed them. Rule as the data show it: active = GI50 up to about 1.1 µM and inactive = higher.
measured_parameter: GI50

molecule="CCCCCCCCCCCCCC(=O)OCC(C[As](=O)(O)O)OC(=O)CCCCCCCCCCCCC (stereo not drawn)" measured_parameter=GI50 measured_result="> 100 µM (inactive)"

Could you now look at the following molecule, please?
Query :: Any idea what GI50 was measured for O=C1C2=C(c3ccccc31)C(c1ccccc1)NC(S)=N2 (stereo not drawn) ?
Result :: > 100 µM (inactive)

----------
The entries below are paired with their reported GI50.
- System: SK-MEL-5
- run_description: NCI tumour cell line growth inhibition, 48 h
The source made the active and inactive calls. No stated cut-off is given here; in the data, active = GI50 up to about 1.1 µM and inactive = higher.

As a guide, the following entries are already answered.
molecule=Fc1ccc(C2(CCCN3CCc4[nH]c5cc(F)ccc5c4C3)OCCO2)cc1 measured_parameter=GI50 measured_result="10.9 µM (inactive)"
molecule="O=C1/C(=C/c2ccccc2)N=C(c2ccccc2)N1C1Nc2cc3c(cc2S1)NC(N1C(=O)/C(=C/c2ccccc2)N=C1c1ccccc1)S3 (stereo unspecified)" measured_parameter=GI50 measured_result="30.3 µM (inactive)"
molecule=Cc1c2ccnc(C(F)(F)F)c2cc2c1[nH]c1ccccc12 measured_parameter=GI50 measured_result="> 125 µM (inactive)"
molecule=Fc1ccccc1-c1nn2c(C34CC5CC(CC(C5)C3)C4)nnc2s1 measured_parameter=GI50 measured_result="> 100 µM (inactive)"
molecule=CNc1nc(SC)nc2c1c(N)nn2C measured_parameter=GI50 measured_result="> 100 µM (inactive)"
molecule=N[C@@H](Cc1ccc2oc3cc(=O)c4ccccc4c-3nc2c1)C(=O)O measured_parameter=GI50 measured_result="11.7 µM (inactive)"
molecule="C=C1C(=O)OC2(C)CCC1CC1OC1(C)CCC=C(C)CCC2O (stereo unspecified)" measured_parameter=GI50 measured_result="> 100 µM (inactive)"
molecule="CC1=Nc2ccccc2SC(c2c(Cl)cccc2Cl)C1 (stereo unspecified)" measured_parameter=GI50 measured_result="1.49 µM (inactive)"

Query :: Reported GI50, molecule Cc1ccc(S(=O)(=O)NC(=O)C2C(=O)CC3(CCCCC3)CC2=O)cc1 : ____
Result :: 25.4 µM (inactive)

Query :: I would be grateful if you could share the reported GI50 for N#CCCN(c1ccc(/C=N/c2ccc(C(=O)O)cc2)cc1)S(=O)(=O)c1ccccc1 .
Result :: > 100 µM (inactive)

Query :: May I ask what GI50 has been recorded for O=C(CN1CCCC1=O)CS(=O)(=O)c1ccccc1 ?
Result :: > 100 µM (inactive)

----------
- System: HOP-92
- run_description: NCI tumour cell line growth inhibition, 48 h
Calls of active or inactive are those of the source. Cut-off read from the data, not from the text of the source: active = GI50 up to about 1.1 µM and inactive = higher.
# output must be one of active, inactive

Use the examples below as a reference point.
compound="COc1ccc2c(c1)nc1n2C(c2c(Cl)cccc2Cl)SC1 (stereo unspecified)" assigned_label=inactive
compound=C/C(=N\NC(=S)N1CC2CCC(CC2)C1)c1nccs1 assigned_label=active
compound=O=C1C=C(Nc2cc(Cl)ccc2Cl)c2ccccc2C1=O assigned_label=inactive
compound=C=CCCON(C(=O)OC(C)(C)C)C(C)(C)C assigned_label=inactive
compound=COc1cc(CNC(=O)CCCCCCCCCCSSCCCCCCCCCCC(=O)NCc2ccc(O)c(OC)c2)ccc1O assigned_label=inactive

Query :: Please state the recorded outcome for this compound: [O-][Cl+3]([O-])([O-])[O-].c1ccc(-c2[o+]c(-c3ccccc3)c(-c3ccccc3)c(-c3ccccc3)c2-c2ccccc2)cc1
Result :: inactive

Query :: Record request — test call for S=C(N/N=C(/c1ccccc1)c1ccccn1)N1CCCCC1
Result :: active

Query :: Field: outcome | Entry: COc1cc(/C=C/C(=O)N[C@@H]2C(=O)N3[C@@H]2SC(C)(C)[C@@H]3C(=O)O)cc(OC)c1OC
Result :: inactive

Query :: Fill in: this test's call for O=C1c2ccccc2C(=O)N1c1nc(-c2ccc(Cl)cc2)cc(N2N=C(c3ccc(Br)cc3)CC2c2ccccc2)n1 (stereo unspecified) is ___
Result :: inactive

Query :: Recorded test call requested for CCN(CC)CCn1c(=O)c2ccccc2n2c3c(=O)n(C)c(=O)n(C)c3nc12
Result :: inactive

Query :: Tell me the recorded outcome of this test for O=C(O)CCCc1cc2c(s1)-c1cccc3cccc-2c13 .
Result :: inactive
